# experimental target: UniProt Q8NEB9
# method summary: Human VPS34 enzyme assay (Adapta TR-FRET)
# Assay type: biochemical
# condition notes: compound concentration 1.11 μM; read-out: Percent Inhibition
assay metric: inhibition at 1.11 µM

stdin: For "CC(=O)Nc1cc(-c2cnc(N)c(S(=O)(=O)Nc3cccnc3)c2)ccn1" , what is its reported inhibition at 1.11 µM?
stdout: > 99%

stdin: For "CC(=O)Nc1cc(-c2cnc(C)c(NC(C)=O)c2)ccn1" , what is its reported inhibition at 1.11 µM?
stdout: > 99%

stdin: For "CC(=O)Nc1cc(-c2cnc(C)c(N3CCCNS3(=O)=O)c2)ccn1" , what is its reported inhibition at 1.11 µM?
stdout: > 99%

stdin: For "COc1ncc(-c2ccnc(NC(C)=O)c2)cc1S(=O)(=O)Nc1ccc(F)cc1F" , what is its reported inhibition at 1.11 µM?
stdout: > 99%

stdin: For "Cc1nccc(Nc2cc(-c3cnc(C)c(OCCN(C)C)c3)ccn2)n1" , what is its reported inhibition at 1.11 µM?
stdout: 47%

stdin: For "CC(=O)Nc1cc(-c2cnc(Cl)c(C(=O)N(C)C)c2)ccn1" , what is its reported inhibition at 1.11 µM?
stdout: > 99%

stdin: For "CC(=O)Nc1cc(-c2cnc3c(c2)CCN3)ccn1" , what is its reported inhibition at 1.11 µM?
stdout: > 99%

stdin: For "CC(=O)Nc1cc(-c2cnc(N)c(C(=O)N3CC[C@@H](F)C3)c2)ccn1" , what is its reported inhibition at 1.11 µM?
stdout: > 99%

stdin: For "CC(=O)Nc1cc(-c2cnc(Cl)c(N3CCCNS3(=O)=O)c2)ccn1" , what is its reported inhibition at 1.11 µM?
stdout: 87%

====

Give inhibition at 1.11 µM for every item shown.
# experimental target: Human VPS34 (Homo sapiens (Human), UniProt Q8NEB9)
# Sequence (Q8NEB9 whole entry): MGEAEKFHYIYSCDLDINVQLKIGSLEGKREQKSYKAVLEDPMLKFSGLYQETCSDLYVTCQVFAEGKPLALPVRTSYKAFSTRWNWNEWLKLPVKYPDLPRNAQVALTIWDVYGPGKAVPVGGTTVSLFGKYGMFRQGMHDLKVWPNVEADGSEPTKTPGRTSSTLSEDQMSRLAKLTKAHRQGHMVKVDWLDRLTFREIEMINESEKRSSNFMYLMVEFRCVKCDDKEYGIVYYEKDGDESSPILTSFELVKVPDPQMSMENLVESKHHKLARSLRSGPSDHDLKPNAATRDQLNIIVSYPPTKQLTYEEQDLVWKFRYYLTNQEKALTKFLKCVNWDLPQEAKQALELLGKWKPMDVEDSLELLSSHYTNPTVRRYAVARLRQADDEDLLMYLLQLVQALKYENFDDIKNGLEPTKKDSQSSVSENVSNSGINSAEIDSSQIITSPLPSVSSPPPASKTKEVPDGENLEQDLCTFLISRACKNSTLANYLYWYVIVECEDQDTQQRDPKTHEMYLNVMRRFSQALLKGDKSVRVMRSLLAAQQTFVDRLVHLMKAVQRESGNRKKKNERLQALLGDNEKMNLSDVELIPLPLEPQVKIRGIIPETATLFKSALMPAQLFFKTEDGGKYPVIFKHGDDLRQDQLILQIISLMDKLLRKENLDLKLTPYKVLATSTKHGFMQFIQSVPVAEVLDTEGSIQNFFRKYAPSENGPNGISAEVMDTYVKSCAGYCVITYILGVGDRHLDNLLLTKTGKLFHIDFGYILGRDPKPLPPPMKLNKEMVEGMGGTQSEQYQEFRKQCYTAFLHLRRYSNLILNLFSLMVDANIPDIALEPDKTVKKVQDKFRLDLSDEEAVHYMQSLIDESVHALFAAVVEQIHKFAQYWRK
# method summary: Human VPS34 enzyme assay (Adapta TR-FRET)
# Format: biochemical
# condition notes: compound concentration 1.11 μM; read-out: Percent Inhibition

stdin: For "CC(=O)Nc1cc(-c2cnc(N)c(N3CCCC3=O)c2)ccn1" , what is its reported inhibition at 1.11 µM?
stdout: 52%

stdin: For "COc1cc(F)c(S(=O)(=O)Nc2cc(-c3ccnc(NC(C)=O)c3)cnc2C)cc1F" , what is its reported inhibition at 1.11 µM?
stdout: > 99%

stdin: For "CC(=O)Nc1cc(-c2cnc(Cl)c(NS(=O)(=O)c3ccccc3)c2C)ccn1" , what is its reported inhibition at 1.11 µM?
stdout: > 99%

stdin: For "CC(=O)Nc1cc(-c2cnc(N)c(S(=O)(=O)O)c2)ccn1" , what is its reported inhibition at 1.11 µM?
stdout: > 99%

====

Give inhibition at 1.11 µM for every item shown.
# experimental target: Human VPS34 (Homo sapiens (Human))
# method summary: Human VPS34 enzyme assay (Adapta TR-FRET)
# Assay type: biochemical
# condition notes: compound concentration 1.11 μM; read-out: Percent Inhibition
Express your answer in %, writing the number without its unit.

stdin: Given the entry "Nc1cncc(-c2ccnc(N)c2)c1" , what inhibition at 1.11 µM was observed with Human VPS34 (Homo sapiens (Human))?
stdout: 26

stdin: Given the entry "CC(=O)Nc1cc(-c2cncc(S(=O)(=O)NC3CCC3)c2)ccn1" , what inhibition at 1.11 µM was observed with Human VPS34 (Homo sapiens (Human))?
stdout: 94

stdin: Given the entry CC(=O)Nc1cc(-c2cnc(C#N)c(N3CCCCC3C)c2)ccn1 (centres unmarked) , what inhibition at 1.11 µM was observed with Human VPS34 (Homo sapiens (Human))?
stdout: 95

stdin: Given the entry "CC(=O)Nc1cc(-c2cc(NS(=O)(=O)N(C)C)c3ccnn3c2)ccn1" , what inhibition at 1.11 µM was observed with Human VPS34 (Homo sapiens (Human))?
stdout: 87

stdin: Given the entry "CCOc1cc(-c2ccnc(Nc3ccnc(C)n3)c2)cnc1C" , what inhibition at 1.11 µM was observed with Human VPS34 (Homo sapiens (Human))?
stdout: 98

stdin: Given the entry "Cc1nccc(Nc2cc(-c3cnc(C)c(C(=S)N4CCC4)c3)ccn2)n1" , what inhibition at 1.11 µM was observed with Human VPS34 (Homo sapiens (Human))?
stdout: 95

stdin: Given the entry "CC(=O)Nc1cc(-c2cncc(S(=O)(=O)NC(C)(C)C)c2C)ccn1" , what inhibition at 1.11 µM was observed with Human VPS34 (Homo sapiens (Human))?
stdout: 98

stdin: Given the entry "Cc1nccc(Nc2cc(-c3cnc(Cl)c(S(=O)(=O)NC4CCC4)c3)ccn2)n1" , what inhibition at 1.11 µM was observed with Human VPS34 (Homo sapiens (Human))?
stdout: 99

stdin: Given the entry "CC(=O)Nc1cc(-c2cnc3[nH]ncc3c2)c(C)cn1" , what inhibition at 1.11 µM was observed with Human VPS34 (Homo sapiens (Human))?
stdout: 49

====

# experimental target: Human VPS34 (Homo sapiens (Human), UniProt Q8NEB9)
# method summary: Human VPS34 enzyme assay (Adapta TR-FRET)
# Type: biochemical
# condition notes: compound concentration 1.11 μM; read-out: Percent Inhibition
Give inhibition at 1.11 µM for every item shown.
Express your answer in %, writing the number without its unit.

stdin: For "Cc1nccc(Nc2cc(-c3cnc(Cl)c(C(=O)N4CCC4)c3)ccn2)n1" , what is its reported inhibition at 1.11 µM?
stdout: 81

stdin: For "Cc1ncc(-c2ccnc(NC(=O)C3CC3)c2)cc1C(=O)N(C)C12CC(C1)C2" , what is its reported inhibition at 1.11 µM?
stdout: 98

stdin: For "CC(=O)Nc1cc(-c2cnc(Cl)c(NS(=O)(=O)c3c(Cl)cccc3Cl)c2C)ccn1" , what is its reported inhibition at 1.11 µM?
stdout: 98

stdin: For "CC(=O)Nc1cc(-c2cnc3ccn(CC4CC4)c3c2)ccn1" , what is its reported inhibition at 1.11 µM?
stdout: 86

====

# experimental target: Human VPS34 (Homo sapiens (Human), UniProt Q8NEB9)
# method summary: Human VPS34 enzyme assay (Adapta TR-FRET)
# Format: biochemical
# condition notes: compound concentration 1.11 μM; read-out: Percent Inhibition
assay metric: inhibition at 1.11 µM (%)
Express your answer in %, writing the number without its unit.

stdin: For "CC(=O)Nc1cc(-c2cncc(S(=O)(=O)Nc3ccccc3)c2)ccn1" , what is its reported inhibition at 1.11 µM?
stdout: 96

stdin: For "Cc1nccc(Nc2cc(-c3cnc(C)c(C(=O)NCC4CC4)c3)ccn2)n1" , what is its reported inhibition at 1.11 µM?
stdout: 85

stdin: For "Cc1nccc(Nc2cc(-c3cnc(C)c(C(N)=O)c3)ccn2)n1" , what is its reported inhibition at 1.11 µM?
stdout: 83

stdin: For "CC(=O)Nc1cc(-c2cc(NS(=O)(=O)c3ccc(F)cc3F)c3ncnn3c2)ccn1" , what is its reported inhibition at 1.11 µM?
stdout: 91

====

# experimental target: Human VPS34 (Homo sapiens (Human))
# method summary: Human VPS34 enzyme assay (Adapta TR-FRET)
# Type: biochemical
# condition notes: compound concentration 1.11 μM; read-out: Percent Inhibition
assay metric: inhibition at 1.11 µM (%)
Express your answer in %, writing the number without its unit.

stdin: Given the entry "CC(=O)Nc1cc(-c2cnc(Cl)c(NS(=O)(=O)c3ccc(C#N)cc3)c2C)ccn1" , what inhibition at 1.11 µM was observed with Human VPS34 (Homo sapiens (Human))?
stdout: 96

stdin: Given the entry "COc1ncc(-c2ccnc(NC(C)=O)c2)cc1S(=O)(=O)Nc1cc(Cl)ccc1Cl" , what inhibition at 1.11 µM was observed with Human VPS34 (Homo sapiens (Human))?
stdout: 98

stdin: Given the entry "Cc1ncc(-c2ccnc(Nc3nc4ccccc4s3)c2)cc1NS(=O)(=O)c1ccc(F)cc1F" , what inhibition at 1.11 µM was observed with Human VPS34 (Homo sapiens (Human))?
stdout: 91

stdin: Given the entry "CC(=O)Nc1cc(-c2cnc3c(c2)S(=O)(=O)N(C24CC(C2)C4)CCO3)ccn1" , what inhibition at 1.11 µM was observed with Human VPS34 (Homo sapiens (Human))?
stdout: 94

stdin: Given the entry "CC(=O)Nc1cc(-c2cncc(S(=O)(=O)N3CCC3)c2)ccn1" , what inhibition at 1.11 µM was observed with Human VPS34 (Homo sapiens (Human))?
stdout: 89

stdin: Given the entry "CC(=O)Nc1cc(-c2cnc(C)c(Nc3nc4ccccc4o3)c2)ccn1" , what inhibition at 1.11 µM was observed with Human VPS34 (Homo sapiens (Human))?
stdout: 82

stdin: Given the entry "Cc1c(-c2ccnc(Nc3ccncn3)c2)cnc(Cl)c1NS(=O)(=O)c1ccccc1" , what inhibition at 1.11 µM was observed with Human VPS34 (Homo sapiens (Human))?
stdout: 99

stdin: Given the entry "CC(=O)Nc1cc(-c2cnc3ncn(CC4CC4)c3c2)ccn1" , what inhibition at 1.11 µM was observed with Human VPS34 (Homo sapiens (Human))?
stdout: 99

stdin: Given the entry "Cc1nccc(Nc2cc(-c3cnc(C)c(C(=O)N4CC(F)(F)C4)c3)ccn2)n1" , what inhibition at 1.11 µM was observed with Human VPS34 (Homo sapiens (Human))?
stdout: 97

stdin: Given the entry "CC(=O)Nc1cc(-c2cncc(S(=O)(=O)NC34CC(C3)C4)c2)ccn1" , what inhibition at 1.11 µM was observed with Human VPS34 (Homo sapiens (Human))?
stdout: 96

stdin: Given the entry "Cc1nccc(Nc2cc(-c3cnc(C)c(C(=O)N4CC(C)(C)C4)c3)ccn2)n1" , what inhibition at 1.11 µM was observed with Human VPS34 (Homo sapiens (Human))?
stdout: 83

stdin: Given the entry "Cc1c(-c2ccnc(Nc3ccnc(-c4ccccc4)n3)c2)cnc(Cl)c1NS(=O)(=O)c1ccc(F)cc1F" , what inhibition at 1.11 µM was observed with Human VPS34 (Homo sapiens (Human))?
stdout: 100

stdin: Given the entry "Cc1nccc(Nc2cc(-c3cnc(C)c(OC4CCCC4)c3)ccn2)n1" , what inhibition at 1.11 µM was observed with Human VPS34 (Homo sapiens (Human))?
stdout: 98

stdin: Given the entry Cc1nccc(Nc2cc(-c3cncc(C(C)OCc4ccccn4)c3)ccn2)n1 (stereo not drawn) , what inhibition at 1.11 µM was observed with Human VPS34 (Homo sapiens (Human))?
stdout: 94

stdin: Given the entry "CC(=O)Nc1cc(-c2cnc(C)c(OCC3CC3)c2)ccn1" , what inhibition at 1.11 µM was observed with Human VPS34 (Homo sapiens (Human))?
stdout: 86

stdin: Given the entry "Cc1nccc(Nc2cc(-c3cc(N)c4ccnn4c3)ccn2)n1" , what inhibition at 1.11 µM was observed with Human VPS34 (Homo sapiens (Human))?
stdout: 99
